Numbers sourced from patent US20030186281A1.

System: tet operator sequence
Assay: β-galactosidase activity of a tetracycline-regulated promoter in transformed E. coli with revTetR, in the presence and absence of anhydrotetracycline (atc)
Assay type: cell-based, Escherichia coli
Details: RevTetR isolate cultured in the absence of anhydrotetracycline (ATC)
reported-metric: β-Galactosidase Activity, Cultured Without ATC
One number for each entry.

So, TetRrevAF1/5: revTetR(BD) L14V G24G Y93D R94G D95G (protein, Modified tetracycline repressor, revTetR(BD) L14V G24G Y93D R94G D95G) MSRLDKSKVINSAVELLNEVGIEGLTTRKLAQKLGVEQPTLYWHVKNKRALLDALAVEILARHHDYSLPAAGESWQSFLRNNAMSFRRALLRDGGGAKVHLGTRPDEKQYDTVETQLRFMTENGFSLRDGLYAISAVSHFTLGAVLEQQEHTAALTDRPAAPDENLPPLLREALQIMDSDDGEQAFLHGLESLIRGFEVQLTALLQIV ? Its β-Galactosidase Activity, Cultured Without ATC was 102.015
